tested on: Setaria viridis; test: Herbicidal activity against Setaria viridis (green foxtail) assessed as killing at 2.5 g/a at 25 degC measured after 2 weeks; format: functional
Task for the reader: assign each of the following compounds its reported Activity.
I only need the number, in %, no unit after it.

Note down Activity recorded for CCc1cccc(CC)c1N(COC)C(=O)CCl [ALACHLOR]
80

Note down Activity recorded for CCc1cccc(C)c1N(C(=O)CCl)C(C)COC (centres undefined) [METOLACHOR]
80

Note down Activity recorded for CCOCCN(C(=O)CCl)C(=C(C)C)c1ccccc1 [PETHOXAMID]
100

Note down Activity recorded for COCCN(C(=O)CCl)C(=C(C)C)c1ccccc1
80
